B1: Hairpin Ribozyme (parent)
chain: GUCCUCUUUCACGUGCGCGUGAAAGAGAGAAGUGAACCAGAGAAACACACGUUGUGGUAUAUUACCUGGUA

variants of: B1; test: self-cleavage, relative activity (ratio to wild type); higher = more cleavage; co-transcriptional
Class membership depends on self-cleavage alone; the intervals are low band: < 0.2; middle band: ≥ 0.2 and < 0.6; high band: ≥ 0.6

construct_sequence="GUCCUCUUUCAAGUGCGCGUGAAAGAGAGAAGUGAACCAGAGAAACACACGUUGUGGUACAUUACCUGGUA [C12A U60C]" assigned_class="high band"
construct_sequence="GUCCUCUUUCACGUGCGCGUGAAAGAGAGAAGUGAACCAGAGAAACACACGUUUUGGUAUAUUGCCUGGUA [G54U A64G]" assigned_class="middle band"
construct_sequence="GUCCUCUUUCACGUGCGCGUGAAAGAGAGAGGUGAACCAGAGAAACACACGUUGUGGUAUAUUACGUGGUA [A31G C66G]" assigned_class="middle band"
construct_sequence="GUCCUCUUUCACGUGCUCGUGAAAGAGAGAAGUGAACCAGAGAAACUCACGUUGUGGUAUAUUACCUGGUA [G17U A47U]" assigned_class="low band"
construct_sequence="GUCCUCUUUCACGUGAGCGUGAAAGAGAGAAGUGAACCAGAGAAACACACGUUGUGGUAUAUUAUCUGGUA [C16A C65U]" assigned_class="middle band"
construct_sequence="GUCCUCUUUAACGUGCGCGUGAAAGAGAGAAGUGAACCAAAGAAACACACGUUGUGGUAUAUUACCUGGUA [C10A G40A]" assigned_class="middle band"
construct_sequence="GUCCUCUUUCAAGUUCGCGUGAAAGAGAGAAGUGAACCAGAGAAACACACGUUGUGGUAUAUUACCUGGUA [C12A G15U]" assigned_class="high band"
construct_sequence="GUCCUCUUUCACGUGCGAGUGAAAGAGAGAAGUGAACCAGAGAAACACACGUCGUGGUAUAUUACCUGGUA [C18A U53C]" assigned_class="high band"
construct_sequence="GUCCUCUUUCAUGUGCGCGUGAAAGAGAGGAGUGAACCAGAGAAACACACGUUGUGGUAUAUUACCUGGUA [C12U A30G]" assigned_class="low band"
construct_sequence="GUCCUCUUUCACGUGCGGGUGAAAGAGAGACGUGAACCAGAGAAACACACGUUGUGGUAUAUUACCUGGUA [C18G A31C]" assigned_class="low band"
construct_sequence="GUCUUCUUUCACGUGCGCGUGAAAGAGAGAAGUGAACCAGAGAAACACACGUUGUGGUAUAUUACCUGAUA [C4U G69A]" assigned_class="low band"
construct_sequence="GUCCUCUUUCACGUGCGCGUGAAAGAGAGAAGUGAACCAGAGAAACACACAUUGUGGUAUAUUACCUGGUA [G51A]" assigned_class="high band"
construct_sequence="GUCCUCUUUCACGUGCGGGUGAAAGAGAGAAGUGAACCAGAGAAACACACGUCGUGGUAUAUUACCUGGUA [C18G U53C]" assigned_class="high band"
construct_sequence="GUCCUAAUUCACGUGCGCGUGAAAGAGAGAAGUGAACCAGAGAAACACACGUUGUGGUAUAUUACCUGGUA [C6A U7A]" assigned_class="high band"
construct_sequence="GUCCUGUUUCACGUGCGCGUGAAAGAGAGAAGUGAACCAGAGAAACACACGUUGUGGUAUAUUAUCUGGUA [C6G C65U]" assigned_class="middle band"
construct_sequence="GUCCUCUUGCACGUGCGCGAGAAAGAGAGAAGUGAACCAGAGAAACACACGUUGUGGUAUAUUACCUGGUA [U9G U20A]" assigned_class="middle band"
construct_sequence="GUCCUCUUUCACGUACGCGUGAAAGAGAGAAGUGAACCAGAGAAACACACGUAGUGGUAUAUUACCUGGUA [G15A U53A]" assigned_class="high band"
construct_sequence="GUCCUCUUUCACGUGCGCGUGAAAGAGAGAAGUGAACCAGAGAAACAGACGUUGUGGAAUAUUACCUGGUA [C48G U58A]" assigned_class="low band"
construct_sequence="GUCCUCUUUCACGUGCGCGUGAAAGAGAGAUGUGAACCAGAGAAACACACGUUGUGGUAUGUUACCUGGUA [A31U A61G]" assigned_class="low band"
construct_sequence="GUCCUCGUUCACGUGCGCGUGAAAGAGAGAAGUGAACCAGAGAAACACACGUUGUAGUAUAUUACCUGGUA [U7G G56A]" assigned_class="low band"
construct_sequence="GUCCUCUUUCACGUGCGCGUUAAAGAGAGAAGUGAACCAGAGAAACACACGUUGUGGAAUAUUACCUGGUA [G21U U58A]" assigned_class="middle band"
